recorded_conditions: in n-propanol, 323.15 K
endpoint: solubility (mole fraction)
Answer field: number only, no words.

Inquiry: Recorded solubility (mole fraction) for CCCCc1nc(Cl)c(CO)n1Cc1ccc(-c2ccccc2-c2nnn[n-]2)cc1.[K+] , please?
Reply text: 0.0376

---

recorded_conditions: in ethanol, 343.15 K
endpoint: solubility (mole fraction)

Inquiry: Fill blank: measured solubility (mole fraction) of the molecule CCCCc1nc(Cl)c(CO)n1Cc1ccc(-c2ccccc2-c2nnn[n-]2)cc1.[K+] is ____.
Reply text: 0.0785

---

recorded_conditions: in n-pentanol, 333.15 K
endpoint: solubility (mole fraction)
// keep it numeric: no unit symbol after the value

Inquiry: Give the measured solubility (mole fraction) of CCCCc1nc(Cl)c(CO)n1Cc1ccc(-c2ccccc2-c2nnn[n-]2)cc1.[K+] .
Reply text: 0.0205

---

recorded_conditions: in cyclohexane, 343.15 K
endpoint: solubility (mole fraction)
Give the figure only, with no unit attached.

Inquiry: I have this compound here, CCCCc1nc(Cl)c(CO)n1Cc1ccc(-c2ccccc2-c2nnn[n-]2)cc1.[K+] , and I need its recorded solubility (mole fraction).
Reply text: 2.59e-05

---

recorded_conditions: in isopropanol, 323.15 K
endpoint: solubility (mole fraction)
Please give the numeric answer without any surrounding text.

Inquiry: Endpoint output: solubility (mole fraction) of CCCCc1nc(Cl)c(CO)n1Cc1ccc(-c2ccccc2-c2nnn[n-]2)cc1.[K+] . Value?
Reply text: 0.00547

---

recorded_conditions: in cyclohexane, 333.15 K
endpoint: solubility (mole fraction)
Form rule: numeric answer, no unit written next to it.

Inquiry: Look at this compound and give its reported solubility (mole fraction). CCCCc1nc(Cl)c(CO)n1Cc1ccc(-c2ccccc2-c2nnn[n-]2)cc1.[K+]
Reply text: 2.88e-05

---

recorded_conditions: in ethyl acetate, 323.15 K
endpoint: solubility (mole fraction)

Inquiry: Consider the compound shown here: CCCCc1nc(Cl)c(CO)n1Cc1ccc(-c2ccccc2-c2nnn[n-]2)cc1.[K+] What is its recorded solubility (mole fraction)?
Reply text: 0.00138

---

recorded_conditions: in cyclohexane, 313.15 K
endpoint: solubility (mole fraction)
# output: bare number, no unit

Inquiry: Entry CCCCc1nc(Cl)c(CO)n1Cc1ccc(-c2ccccc2-c2nnn[n-]2)cc1.[K+] has what solubility (mole fraction)?
Reply text: 3.05e-05

---

recorded_conditions: in isopropanol, 303.15 K
endpoint: solubility (mole fraction)
Respond numerically, and do not add a unit to the figure.

Inquiry: Dear colleague, I am looking for the recorded solubility (mole fraction) of the following compound: CCCCc1nc(Cl)c(CO)n1Cc1ccc(-c2ccccc2-c2nnn[n-]2)cc1.[K+]
Reply text: 0.00279

---

recorded_conditions: in n-propanol, 313.15 K
endpoint: solubility (mole fraction)
The response must contain the number and no unit.

Inquiry: Consider the compound shown here: CCCCc1nc(Cl)c(CO)n1Cc1ccc(-c2ccccc2-c2nnn[n-]2)cc1.[K+] What is its recorded solubility (mole fraction)?
Reply text: 0.0299

---

recorded_conditions: in n-butyl acetate, 313.15 K
endpoint: solubility (mole fraction)
// no unit, no text: just the number

Inquiry: Returns the measured solubility (mole fraction) for the input molecule. Input: CCCCc1nc(Cl)c(CO)n1Cc1ccc(-c2ccccc2-c2nnn[n-]2)cc1.[K+]
Reply text: 0.000968

---

recorded_conditions: in ethanol, 303.15 K
endpoint: solubility (mole fraction)
Please give only the number in your answer, with no unit.

Inquiry: # get_value(readout='solubility (mole fraction)', item= CCCCc1nc(Cl)c(CO)n1Cc1ccc(-c2ccccc2-c2nnn[n-]2)cc1.[K+] )
Reply text: 0.0473

---

recorded_conditions: in n-pentanol, 313.15 K
endpoint: solubility (mole fraction)
Respond numerically, and do not add a unit to the figure.

Inquiry: Any idea what its solubility (mole fraction) is? The compound is CCCCc1nc(Cl)c(CO)n1Cc1ccc(-c2ccccc2-c2nnn[n-]2)cc1.[K+]
Reply text: 0.0287

---

recorded_conditions: in ethyl acetate, 343.15 K
endpoint: solubility (mole fraction)
The answer should be a number; do not append a unit.

Inquiry: Look up solubility (mole fraction): CCCCc1nc(Cl)c(CO)n1Cc1ccc(-c2ccccc2-c2nnn[n-]2)cc1.[K+]
Reply text: 0.00279

---

recorded_conditions: in methanol, 313.15 K
endpoint: solubility (mole fraction)
Number only, no unit.

Inquiry: Item under review: CCCCc1nc(Cl)c(CO)n1Cc1ccc(-c2ccccc2-c2nnn[n-]2)cc1.[K+] . Reported solubility (mole fraction)?
Reply text: 0.0445

---

recorded_conditions: in n-propanol, 333.15 K
endpoint: solubility (mole fraction)

Inquiry: Name the recorded solubility (mole fraction) for CCCCc1nc(Cl)c(CO)n1Cc1ccc(-c2ccccc2-c2nnn[n-]2)cc1.[K+] .
Reply text: 0.0452

---

recorded_conditions: in ethyl acetate, 313.15 K
endpoint: solubility (mole fraction)

Inquiry: solubility (mole fraction) for CCCCc1nc(Cl)c(CO)n1Cc1ccc(-c2ccccc2-c2nnn[n-]2)cc1.[K+] ?
Reply text: 0.00252

---

recorded_conditions: in methanol, 303.15 K
endpoint: solubility (mole fraction)
Answer with the value's number alone.

Inquiry: Bench note: what solubility (mole fraction) did CCCCc1nc(Cl)c(CO)n1Cc1ccc(-c2ccccc2-c2nnn[n-]2)cc1.[K+] show?
Reply text: 0.0375

---

recorded_conditions: in cyclohexane, 303.15 K
endpoint: solubility (mole fraction)

Inquiry: // lookup solubility (mole fraction) for CCCCc1nc(Cl)c(CO)n1Cc1ccc(-c2ccccc2-c2nnn[n-]2)cc1.[K+]
Reply text: 2.87e-05

---

recorded_conditions: in methanol, 343.15 K
endpoint: solubility (mole fraction)
Give your answer as a number; write no unit.

Inquiry: Recorded solubility (mole fraction) for CCCCc1nc(Cl)c(CO)n1Cc1ccc(-c2ccccc2-c2nnn[n-]2)cc1.[K+] , please?
Reply text: 0.0533

---

recorded_conditions: in n-pentanol, 323.15 K
endpoint: solubility (mole fraction)
Reply with the value as a number alone.

Inquiry: Would you mind telling me what solubility (mole fraction) value was observed for CCCCc1nc(Cl)c(CO)n1Cc1ccc(-c2ccccc2-c2nnn[n-]2)cc1.[K+] ?
Reply text: 0.0234

---

recorded_conditions: in n-butyl acetate, 303.15 K
endpoint: solubility (mole fraction)

Inquiry: State the recorded solubility (mole fraction) for this entry: CCCCc1nc(Cl)c(CO)n1Cc1ccc(-c2ccccc2-c2nnn[n-]2)cc1.[K+]
Reply text: 0.00238

---

recorded_conditions: in cyclohexane, 293.15 K
endpoint: solubility (mole fraction)
Answer field: number only, no words.

Inquiry: Any idea what solubility (mole fraction) was measured for CCCCc1nc(Cl)c(CO)n1Cc1ccc(-c2ccccc2-c2nnn[n-]2)cc1.[K+] ?
Reply text: 3.4e-05

---

recorded_conditions: in ethanol, 313.15 K
endpoint: solubility (mole fraction)
Note: the reply should be a number with no unit written.

Inquiry: Given the entry CCCCc1nc(Cl)c(CO)n1Cc1ccc(-c2ccccc2-c2nnn[n-]2)cc1.[K+] , report its measured solubility (mole fraction).
Reply text: 0.0547

---

recorded_conditions: in isopropanol, 293.15 K
endpoint: solubility (mole fraction)
A bare number is all that is needed in reply.

Inquiry: Query (molecule): CCCCc1nc(Cl)c(CO)n1Cc1ccc(-c2ccccc2-c2nnn[n-]2)cc1.[K+] ; field requested: solubility (mole fraction)
Reply text: 0.0027

---

recorded_conditions: in ethanol, 333.15 K
endpoint: solubility (mole fraction)
# output: bare number, no unit

Inquiry: Query (compound): CCCCc1nc(Cl)c(CO)n1Cc1ccc(-c2ccccc2-c2nnn[n-]2)cc1.[K+] ; field requested: solubility (mole fraction)
Reply text: 0.0739

---

recorded_conditions: in methanol, 333.15 K
endpoint: solubility (mole fraction)
Lab note: jot down the number only; don't add units.

Inquiry: Look at this molecule and give its reported solubility (mole fraction). CCCCc1nc(Cl)c(CO)n1Cc1ccc(-c2ccccc2-c2nnn[n-]2)cc1.[K+]
Reply text: 0.0508

---

recorded_conditions: in ethyl acetate, 293.15 K
endpoint: solubility (mole fraction)
Answer with a number only.

Inquiry: Please give the measured solubility (mole fraction) for this compound: CCCCc1nc(Cl)c(CO)n1Cc1ccc(-c2ccccc2-c2nnn[n-]2)cc1.[K+]
Reply text: 0.00251

---

recorded_conditions: in cyclohexane, 323.15 K
endpoint: solubility (mole fraction)

Inquiry: May I ask what solubility (mole fraction) has been recorded for CCCCc1nc(Cl)c(CO)n1Cc1ccc(-c2ccccc2-c2nnn[n-]2)cc1.[K+] ?
Reply text: 2.72e-05

---

recorded_conditions: in ethanol, 293.15 K
endpoint: solubility (mole fraction)
Just the number, please, no unit after it.

Inquiry: Item under review: CCCCc1nc(Cl)c(CO)n1Cc1ccc(-c2ccccc2-c2nnn[n-]2)cc1.[K+] . Reported solubility (mole fraction)?
Reply text: 0.0381
